Values from patent US9883691B2

Assignment: determine reported PTR-MS headspace release in Propylene glycol for the given compounds.
Test: PTR-MS headspace release with various non-aqueous liquids (diols) at 0.05:100 (Example 3)
Format: physicochemical
Conditions: non-aqueous liquid propylene glycol; ratio 0.05:100; diluted in water
The answer should be a number; do not append a unit.

Ask: Reported PTR-MS headspace release in Propylene glycol, compound CC(C)=CCCC(C)=CC=O [Citral, 3,7-dimethyl-2,6-octadienal] : ____
Reply: 18.80

Ask: Which PTR-MS headspace release in Propylene glycol value is on record for CCCCCCCCO [Octanol] ?
Reply: 1.19

Ask: I am curious: what PTR-MS headspace release in Propylene glycol value has been reported for COc1ccccc1O [Guaiacol] ?
Reply: 36.50

Ask: What value of PTR-MS headspace release in Propylene glycol has been recorded for this entry: CCCCOC(=O)CCC [Butyl butyrate]
Reply: 10.50

###

Test: PTR-MS headspace release at various flavor compound to 1,3-propanediol or PG ratios (Example 2)
Format: physicochemical
Settings: ratio 15:100; (IZ−IPG)/IPG×100
Quantity Measured: Percent Suppression by 1,3-propanediol (%)
Report as a plain number; the unit % is understood.

Ask: Give the measured Percent Suppression by 1,3-propanediol of `C=C(C)[C@H]1CC=C(C)CC1` .
Reply: 23.5

Ask: Which Percent Suppression by 1,3-propanediol reading was recorded for the compound CCCC(=O)OCC [Ethyl butyrate] ?
Reply: −3.3

Ask: What value of measured Percent Suppression by 1,3-propanediol is listed for `CC=O` ?
Reply: 64.5

Ask: Reported Percent Suppression by 1,3-propanediol for CCCCCCCCCC(=O)OCC [Ethyl decanoate] : what is it?
Reply: −12.4

Ask: So what's the measured Percent Suppression by 1,3-propanediol for this one? `CCCC(=O)O`
Reply: −6.0

Ask: Any idea what its Percent Suppression by 1,3-propanediol is? The compound is `CCCCCCO`
Reply: −20.0

Ask: Give the measured Percent Suppression by 1,3-propanediol of `CCO` .
Reply: −0.9

Ask: Form field: reported Percent Suppression by 1,3-propanediol of CCCCOC(=O)CCC [Butyl butyrate]
Reply: −8.2

Ask: Request the reported Percent Suppression by 1,3-propanediol associated with `COc1ccccc1O`
Reply: 0.2

Ask: What does the data say about its Percent Suppression by 1,3-propanediol? Entry: `O=Cc1ccccc1`
Reply: −16.2

###

Task for the reader: assign each of the following molecules its reported Percent Suppression by 1,3-propanediol.
Assay: PTR-MS headspace release at various flavor compound to 1,3-propanediol or PG ratios (Example 2)
Format: physicochemical
Conditions: ratio 0.005:100; (IZ−IPG)/IPG×100; negative = suppressed vs PG
Give the value in % but do not write % after it.

Ask: Look up Percent Suppression by 1,3-propanediol: `CCCCCCCC=O`
Reply: 2.6

Ask: Which Percent Suppression by 1,3-propanediol is listed for `CC(C)=CCCC(C)=CC=O` ?
Reply: −70.0

Ask: Given `CC(=O)O` , state its recorded Percent Suppression by 1,3-propanediol.
Reply: −0.5

Ask: Which Percent Suppression by 1,3-propanediol reading was recorded for the molecule `CCCC(=O)O` ?
Reply: 7.5

Ask: Look up Percent Suppression by 1,3-propanediol: `CC(C)CC=O`
Reply: 3.7

Ask: I have this molecule here, `O=Cc1ccccc1` , and I need its recorded Percent Suppression by 1,3-propanediol.
Reply: −0.5

Ask: Would you kindly share the measured Percent Suppression by 1,3-propanediol for `SCc1ccco1` ?
Reply: 31.8

Ask: Param item = `CCCCCCO` ; retrieve measured Percent Suppression by 1,3-propanediol.
Reply: −3.6

Ask: Data request, read-out Percent Suppression by 1,3-propanediol, for CCCC(=O)OCC [Ethyl butyrate]
Reply: 3.2

Ask: What does the record list as Percent Suppression by 1,3-propanediol for `CCCCCCCCO` ?
Reply: 8.5

Ask: Name the recorded Percent Suppression by 1,3-propanediol for `CCO` .
Reply: 11.9

Ask: Looking for the measured Percent Suppression by 1,3-propanediol of `Cc1nc(C)c(C)nc1C` , can you help?
Reply: 10.2

Ask: What Percent Suppression by 1,3-propanediol value was documented for this molecule, CCCCOC(=O)CCC [Butyl butyrate] ?
Reply: −3.3

Ask: Any idea what its Percent Suppression by 1,3-propanediol is? The molecule is `C=C(C)[C@H]1CC=C(C)CC1`
Reply: −0.1

###

Test: PTR-MS headspace release with various non-aqueous liquids (diols) at 0.05:100 (Example 3)
Type: physicochemical
Conditions: non-aqueous liquid propylene glycol; ratio 0.05:100; diluted in water
Quantity Measured: PTR-MS headspace release in Propylene glycol
Please give the numeric answer without any surrounding text.

Ask: Item under review: `SCc1ccco1` . Reported PTR-MS headspace release in Propylene glycol?
Reply: 0.51

Ask: Consider the compound `CC=O` and give its measured PTR-MS headspace release in Propylene glycol.
Reply: 165.85

Ask: Data request, read-out PTR-MS headspace release in Propylene glycol, for CCCCCCCCCC(=O)OCC [Ethyl decanoate]
Reply: 16.84

Ask: Can you share its PTR-MS headspace release in Propylene glycol? I mean this compound: `CCO`
Reply: 28.52

Ask: So what does the record say about PTR-MS headspace release in Propylene glycol for `CC(=O)O` ?
Reply: 13.70

Ask: May I ask what PTR-MS headspace release in Propylene glycol has been recorded for `CCCC(=O)O` ?
Reply: 28.00

Ask: Report PTR-MS headspace release in Propylene glycol for `Cc1nc(C)c(C)nc1C` please.
Reply: 17.85

###

Provide the recorded Percent Suppression by 1,3-propanediol for the entries that follow.
Assay: PTR-MS headspace release at various flavor compound to 1,3-propanediol or PG ratios (Example 2)
Assay type: physicochemical
Details: ratio 5:100; (IZ−IPG)/IPG×100
// note: answer is a bare numeric in %

Ask: Quick check: Percent Suppression by 1,3-propanediol of CCCCOC(=O)CCC [Butyl butyrate] ?
Reply: −20.5

Ask: I would be grateful if you could share the reported Percent Suppression by 1,3-propanediol for `O=Cc1ccccc1` .
Reply: −40.6

Ask: So what's the measured Percent Suppression by 1,3-propanediol for this one? `COc1ccccc1O`
Reply: −19.9

###

Experiment: PTR-MS headspace release with various non-aqueous liquids (diols) at 0.05:100 (Example 3)
Type: physicochemical
Details: non-aqueous liquid 1,3-propanediol; ratio 0.05:100; diluted in water
Quantity Measured: PTR-MS headspace release in 1,3-propanediol
Lab note: jot the number down without any unit.

Ask: Item under review: CCCCCCCC=O [Octanal] . Reported PTR-MS headspace release in 1,3-propanediol?
Reply: 10.70

Ask: Give its PTR-MS headspace release in 1,3-propanediol value. Item: CCCCOC(=O)CCC [Butyl butyrate]
Reply: 13.57

Ask: Given the molecule CC=O [Acetaldehyde] , what is its reported PTR-MS headspace release in 1,3-propanediol?
Reply: 104.00

Ask: PTR-MS headspace release in 1,3-propanediol for CC(C)CC=O [Isovaleraldehyde] ?
Reply: 12.35

Ask: Look up PTR-MS headspace release in 1,3-propanediol: CC(C)=CCCC(C)=CC=O [Citral, 3,7-dimethyl-2,6-octadienal]
Reply: 5.83

Ask: PTR-MS headspace release in 1,3-propanediol lookup needed for CCCCCCO [Hexanol] , thanks.
Reply: 0.20

Ask: Quick one: PTR-MS headspace release in 1,3-propanediol for C=C(C)[C@H]1CC=C(C)CC1 [Limonene] ?
Reply: 4.9

Ask: What does the record list as PTR-MS headspace release in 1,3-propanediol for O=Cc1ccccc1 [Benzaldehyde] ?
Reply: 13.20

Ask: Entry CCCCCCCCO [Octanol] has what PTR-MS headspace release in 1,3-propanediol?
Reply: 1.05

Ask: For the molecule COc1ccccc1O [Guaiacol] , what PTR-MS headspace release in 1,3-propanediol is on record?
Reply: 18.95

Ask: // returns reported PTR-MS headspace release in 1,3-propanediol for input SCc1ccco1 [Furfuryl mercaptan]
Reply: 0.55

Ask: Name the reported PTR-MS headspace release in 1,3-propanediol value associated with the molecule Cc1nc(C)c(C)nc1C [Tetramethyl pyrazine]
Reply: 9.89

Ask: Need PTR-MS headspace release in 1,3-propanediol of CCCC(=O)O [Butyric acid] , thanks.
Reply: 30.25

Ask: Which value of PTR-MS headspace release in 1,3-propanediol has been reported for CCCC(=O)OCC [Ethyl butyrate] in the records?
Reply: 46.20

###

Assay: PTR-MS headspace release with various non-aqueous liquids (diols) at 0.05:100 (Example 3)
Format: physicochemical
Conditions: ratio 0.05:100
Quantity Measured: Percent suppression by 1,3-butanediol relative to 1,4-butanediol

Ask: # input molecule: `CC(=O)O` ; wanted: its Percent suppression by 1,3-butanediol relative to 1,4-butanediol
Reply: 8.0%

Ask: Item `CCCC(=O)O` has what recorded Percent suppression by 1,3-butanediol relative to 1,4-butanediol?
Reply: −56.8%

Ask: # query: Percent suppression by 1,3-butanediol relative to 1,4-butanediol of entry CCCCOC(=O)CCC [Butyl butyrate]
Reply: −77.2%

Ask: Sample `CC=O` — what was its Percent suppression by 1,3-butanediol relative to 1,4-butanediol?
Reply: −25.2%

Ask: Fill blank: measured Percent suppression by 1,3-butanediol relative to 1,4-butanediol of the molecule `Cc1nc(C)c(C)nc1C` is ____.
Reply: −67.3%

Ask: Reported Percent suppression by 1,3-butanediol relative to 1,4-butanediol, molecule CCCC(=O)OCC [Ethyl butyrate] : ____
Reply: −69.10%

Ask: Consider the molecule shown here: CCCCCCCCCC(=O)OCC [Ethyl decanoate] What is its recorded Percent suppression by 1,3-butanediol relative to 1,4-butanediol?
Reply: −120.5%

Ask: Sample `CCCCCCO` — what was its Percent suppression by 1,3-butanediol relative to 1,4-butanediol?
Reply: −50.0%

Ask: Consider the molecule `O=Cc1ccccc1` and give its measured Percent suppression by 1,3-butanediol relative to 1,4-butanediol.
Reply: −41.6%

Ask: Name the recorded Percent suppression by 1,3-butanediol relative to 1,4-butanediol for `SCc1ccco1` .
Reply: 73.9%

Ask: # Percent suppression by 1,3-butanediol relative to 1,4-butanediol lookup, item `CCCCCCCCO`
Reply: −27.5%

Ask: Which Percent suppression by 1,3-butanediol relative to 1,4-butanediol value is on record for `C=C(C)[C@H]1CC=C(C)CC1` ?
Reply: −343.5%

Ask: What does the record list as Percent suppression by 1,3-butanediol relative to 1,4-butanediol for `CCCCCCCC=O` ?
Reply: −30.5%

Ask: Record request: Percent suppression by 1,3-butanediol relative to 1,4-butanediol value, item `COc1ccccc1O`
Reply: −40.3%

Ask: Which value of Percent suppression by 1,3-butanediol relative to 1,4-butanediol has been reported for `CC(C)CC=O` in the records?
Reply: −53.0%

Ask: GET /values?readout=Percent suppression by 1,3-butanediol relative to 1,4-butanediol&item= `CC(C)=CCCC(C)=CC=O`
Reply: −124.2%
